target: AngaD7L3 (Anopheles gambiae)
Sequence (A0A1S4HE90 27-354): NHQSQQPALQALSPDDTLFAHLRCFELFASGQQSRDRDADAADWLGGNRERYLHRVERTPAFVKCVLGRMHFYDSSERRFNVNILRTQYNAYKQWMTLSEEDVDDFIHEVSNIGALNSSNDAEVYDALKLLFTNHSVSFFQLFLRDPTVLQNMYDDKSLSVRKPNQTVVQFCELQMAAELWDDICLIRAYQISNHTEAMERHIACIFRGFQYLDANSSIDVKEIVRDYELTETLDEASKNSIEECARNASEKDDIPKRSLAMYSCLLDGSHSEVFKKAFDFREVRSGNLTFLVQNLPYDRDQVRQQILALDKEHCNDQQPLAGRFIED
Recorded metric: pKd
Just the number, please; pKd means minus log10 of the concentration in mol/L.

I have this compound here, NCCc1c[nH]c2ccc(O)cc12 [Serotonin, 5-hydroxytryptamine (5-HT)] , and I need its recorded pKd. 7.70

* * *

Target: AngaD7L1 (Anopheles gambiae, UniProt Q7PJ76)
Sequence (Q7PJ76 22-311): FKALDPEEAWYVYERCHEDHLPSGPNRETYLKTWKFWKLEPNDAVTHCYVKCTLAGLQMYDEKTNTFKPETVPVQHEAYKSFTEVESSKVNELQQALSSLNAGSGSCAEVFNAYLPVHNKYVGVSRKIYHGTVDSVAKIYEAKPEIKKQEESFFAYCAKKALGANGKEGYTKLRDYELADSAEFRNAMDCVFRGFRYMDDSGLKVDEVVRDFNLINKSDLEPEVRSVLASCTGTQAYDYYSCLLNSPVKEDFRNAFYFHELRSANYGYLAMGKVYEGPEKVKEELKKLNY
Reported Kd values follow for various molecules
Report the figure in nM without appending any unit label.

I have this molecule here, "CCCCC[C@H](O)/C=C/[C@@H]1[C@@H](C/C=C\CCCC(=O)O)[C@H]2CO[C@@H]1C2" , and I need its recorded Kd. 400

I have this molecule here, "CCCCC/C=C\C\C=C/C=C/C=C/[C@@H](SC[C@H](NC(=O)CC[C@H](N)C(=O)O)C(=O)NCC(=O)O)[C@@H](O)CCCC(=O)O" , and I need its recorded Kd. 2000

Data origin: paper PMC9123270
